MIC data for S. aureus Smith follow.

| compound | system | MIC |
| --- | --- | --- |
| Cl.NC[C@@H]1CN(c2nc3c(cc2F)c(=O)c(C(=O)O)cn3C2CC2)C[C@@H]1F (relative stereo) [Compound No. 1-cis.HCl] | S. aureus Smith | 0.025 µg/mL |
| Cl.NC[C@@H]1CN(c2nc3c(cc2F)c(=O)c(C(=O)O)cn3C2CC2)C[C@@H]1Cl (relative stereo) [2-cis.HCl] | S. aureus Smith | 0.025 µg/mL |
| Cl.NCC1CCN(c2nc3c(cc2F)c(=O)c(C(=O)O)cn3C2CC2)C1 (stereo not drawn) [Compound B, reference compound] | S. aureus Smith | 0.05 µg/mL |
| CCn1cc(C(=O)O)c(=O)c2cc(F)c(N3CCC(CN)C3)nc21.Cl (stereo not drawn) [Compound A, reference compound] | S. aureus Smith | 0.1 µg/mL |
| CCNC[C@@H]1CN(c2nc3c(cc2F)c(=O)c(C(=O)O)cn3C2CC2)C[C@H]1F.Cl (relative stereo) [4-trans.HCl] | S. aureus Smith | 0.025 µg/mL |
| Cl.NC[C@@H]1CN(c2nc3c(cc2F)c(=O)c(C(=O)O)cn3C2CC2)C[C@H]1F (relative stereo) [Compound No. 1-trans.HCl] | S. aureus Smith | 0.025 µg/mL |

----------
# protocolDescription: Solubility in water
# Assay type: physicochemical
# conditionSet: distilled water, 25° C overnight
Reported solubility values for the following compounds.
propertyMeasured: solubility (µg/mL)

| compound | number |
| --- | --- |
| CNC[C@@H]1CN(c2nc3c(cc2F)c(=O)c(C(=O)O)cn3C2CC2)C[C@@H]1F (relative stereo) [3-cis] | 789 |
| NC[C@@H]1CN(c2nc3c(cc2F)c(=O)c(C(=O)O)cn3C2CC2)C[C@@H]1F (relative stereo) [Compound No. 1-cis] | 927 |
| NC[C@@H]1CN(c2nc3c(cc2F)c(=O)c(C(=O)O)cn3C2CC2)C[C@@H]1Cl (relative stereo) [Compound No. 2-cis] | 713 |

----------
MIC data for S. pyogenes A65 follow.

| molecule | unitAbbrev | MIC |
| --- | --- | --- |
| CCNC[C@@H]1CN(c2nc3c(cc2F)c(=O)c(C(=O)O)cn3C2CC2)C[C@H]1F.Cl (relative stereo) [4-trans.HCl] | µg/mL | 0.05 |
| Cl.NC[C@@H]1CN(c2nc3c(cc2F)c(=O)c(C(=O)O)cn3C2CC2)C[C@H]1F (relative stereo) [Compound No. 1-trans.HCl] | µg/mL | 0.025 |
| Cl.NCC1CCN(c2nc3c(cc2F)c(=O)c(C(=O)O)cn3C2CC2)C1 (stereo not drawn) [Compound B, reference compound] | µg/mL | 0.05 |
| Cl.NC[C@@H]1CN(c2nc3c(cc2F)c(=O)c(C(=O)O)cn3C2CC2)C[C@@H]1Cl (relative stereo) [2-cis.HCl] | µg/mL | 0.025 |
| CCn1cc(C(=O)O)c(=O)c2cc(F)c(N3CCC(CN)C3)nc21.Cl (stereo not drawn) [Compound A, reference compound] | µg/mL | 0.39 |
| Cl.NC[C@@H]1CN(c2nc3c(cc2F)c(=O)c(C(=O)O)cn3C2CC2)C[C@@H]1F (relative stereo) [Compound No. 1-cis.HCl] | µg/mL | 0.0125 |

Just for reference, patent US4738968A is where these values come from.
